- System: NCI-H460
- measurementNotes: Cytotoxicity against human NCIH460 cells after 48 hrs by SRB assay
- Assay type: functional
- testParameters: Homo sapiens, NCI-H460, 48 h
Reported GI50 values are given for each entry in this list.
readout: GI50

[[record]]
smilesstring = "COc1cc(/C=C\\c2ccc(OC)c([N+](=O)[O-])c2[N+](=O)[O-])cc(OC)c1OC"
assayvalue = "370 nM"

[[record]]
smilesstring = "COc1cc(/C=C/c2ccc(OC)c([N+](=O)[O-])c2[N+](=O)[O-])cc(OC)c1OC"
assayvalue = "> 10000 nM"

[[record]]
smilesstring = "COc1cc([N+](=O)[O-])c(/C=C\\c2cc(OC)c(OC)c(OC)c2)cc1[N+](=O)[O-]"
assayvalue = "3500 nM"

[[record]]
smilesstring = "COc1cc([N+](=O)[O-])c(/C=C\\c2cc(OC)c(OC)c(OC)c2)cc1N"
assayvalue = "2500 nM"

[[record]]
smilesstring = "COc1cc(/C=C/c2cc([N+](=O)[O-])c(OC)c([N+](=O)[O-])c2)cc(OC)c1OC"
assayvalue = "> 10000 nM"

[[record]]
smilesstring = "COc1ccc(/C=C\\c2cc(OC)c(OC)c(OC)c2)c(O)c1O"
assayvalue = "740 nM"

[[record]]
smilesstring = "COc1cc([N+](=O)[O-])c(/C=C/c2cc(OC)c(OC)c(OC)c2)cc1[N+](=O)[O-]"
assayvalue = "> 10000 nM"

[[record]]
smilesstring = "COc1cc(/C=C\\c2cc([N+](=O)[O-])c(OC)c([N+](=O)[O-])c2)cc(OC)c1OC"
assayvalue = "370 nM"

[[record]]
smilesstring = "COc1ccc(/C=C\\c2cc(OC)c(OC)c(OC)c2)cc1O"
assayvalue = "0.6 nM"

[[record]]
smilesstring = "COc1ccc(/C=C\\c2cc(OC)c(OC)c(OC)c2)c(N)c1N"
assayvalue = "9 nM"

[[record]]
smilesstring = "COc1cc(/C=C\\c2cc(N)c(OC)c(N)c2)cc(OC)c1OC"
assayvalue = "2400 nM"

[[record]]
smilesstring = "COc1cc(N)c(/C=C\\c2cc(OC)c(OC)c(OC)c2)cc1N"
assayvalue = "380 nM"

[[record]]
smilesstring = "COc1cc(N)c(/C=C\\c2cc(OC)c(OC)c(OC)c2)cc1[N+](=O)[O-].Cl"
assayvalue = "4300 nM"

